Would you kindly list viability, T/C for each of these molecules?
tested on: 276233-004-R-J1-PDC KRAS spheroids with HUVEC/MSC, viability; experiment: Anticancer human tumor 276233-004-R-J1-PDC patient-derived colon adenocarcinoma cell line growth inhibition [KRAS2]; conditions: second compound 0.316 µM; first compound 3.16 µM; stronger effect = lower value;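 further: cells exposed to agents for seven days before viability read; 100% = DMSO vehicle control wells and lower values mean fewer viable cells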
Numbers only, in %.

CC(C)NCC(C(=O)N1CCN(c2ncnc3c2C(C)CC3O)CC1)c1ccc(Cl)cc1 (stereo not given) + C=CC(=O)N1CCN(c2nc(=O)n(-c3c(C)ccnc3C(C)C)c3nc(-c4c(O)cccc4F)c(F)cc23)C(C)C1    77.3
CC(C)NCC(C(=O)N1CCN(c2ncnc3c2C(C)CC3O)CC1)c1ccc(Cl)cc1 (stereo not given) + C=CC(=O)N1CCN(c2nc(OCC3CCCN3C)nc3c2CCN(c2cccc4cccc(C)c24)C3)CC1CC#N    63.2
CCNC(=O)CC1N=C(c2ccc(Cl)cc2)c2cc(OC)ccc2-n2c(C)nnc21 (stereo not given) + C=CC(=O)N1CCN(c2nc(=O)n(-c3c(C)ccnc3C(C)C)c3nc(-c4c(O)cccc4F)c(F)cc23)C(C)C1    69.7
COc1cc(Nc2ncc3c(n2)-c2ccc(Cl)cc2C(c2c(F)cccc2OC)=NC3)ccc1C(=O)O + CNCc1ccccc1-c1csc(C(C)Nc2nc(C)nc3cc(OC)c(OC)cc23)c1    91.9
O=C(c1cc(Cc2n[nH]c(=O)c3ccccc23)ccc1F)N1CCN(C(=O)C2CC2)CC1 + C=CC(=O)N1CCN(c2nc(=O)n(-c3c(C)ccnc3C(C)C)c3nc(-c4c(O)cccc4F)c(F)cc23)C(C)C1    105
CC1OCC2(CCN(c3cnc(Sc4ccnc(N)c4Cl)c(N)n3)CC2)C1N (stereo not given) + CNCc1ccccc1-c1csc(C(C)Nc2nc(C)nc3cc(OC)c(OC)cc23)c1    66

Could you tell me viability, T/C for each of these molecules? They are listed below.
1. COc1cc2nccc(Oc3ccc(NC(=O)C4(C(=O)Nc5ccc(F)cc5)CC4)cc3)c2cc1OC + C=CC(=O)N1CCN(c2nc(=O)n(-c3c(C)ccnc3C(C)C)c3nc(-c4c(O)cccc4F)c(F)cc23)C(C)C1
2. COC(=O)c1ccc2c(C(=Nc3ccc(N(C)C(=O)CN4CCN(C)CC4)cc3)c3ccccc3)c(O)[nH]c2c1 + CNCc1ccccc1-c1csc(C(C)Nc2nc(C)nc3cc(OC)c(OC)cc23)c1
3. COC(=O)c1ccc2c(C(=Nc3ccc(N(C)C(=O)CN4CCN(C)CC4)cc3)c3ccccc3)c(O)[nH]c2c1 + CC1OCC2(CCN(c3cnc(Sc4ccnc(N)c4Cl)c(N)n3)CC2)C1N
4. CC(C)NCC(C(=O)N1CCN(c2ncnc3c2C(C)CC3O)CC1)c1ccc(Cl)cc1 (stereo not given) + CC1OCC2(CCN(c3cnc(Sc4ccnc(N)c4Cl)c(N)n3)CC2)C1N
5. CC1(C)CCC(CN2CCN(c3ccc(C(=O)NS(=O)(=O)c4ccc(NCC5CCOCC5)c([N+](=O)[O-])c4)c(Oc4cnc5[nH]ccc5c4)c3)CC2)=C(c2ccc(Cl)cc2)C1 + CNCc1ccccc1-c1csc(C(C)Nc2nc(C)nc3cc(OC)c(OC)cc23)c1

Result:
[87.4, 70.4, 46.1, 49.5, 69.9]

Quick one: give me viability, T/C for each item below, same order please.
1. CC1OCC2(CCN(c3cnc(Sc4ccnc(N)c4Cl)c(N)n3)CC2)C1N (stereo not given) + C=CC(=O)N1CCN(c2nc(=O)n(-c3c(C)ccnc3C(C)C)c3nc(-c4c(O)cccc4F)c(F)cc23)C(C)C1
2. CCNC(=O)CC1N=C(c2ccc(Cl)cc2)c2cc(OC)ccc2-n2c(C)nnc21 (stereo not given) + CNCc1ccccc1-c1csc(C(C)Nc2nc(C)nc3cc(OC)c(OC)cc23)c1
3. CC1OCC2(CCN(c3cnc(Sc4ccnc(N)c4Cl)c(N)n3)CC2)C1N (stereo not given) + C=CC(=O)N1CCN(c2nc(OCC3CCCN3C)nc3c2CCN(c2cccc4cccc(C)c24)C3)CC1CC#N
4. CCNC(=O)CC1N=C(c2ccc(Cl)cc2)c2cc(OC)ccc2-n2c(C)nnc21 (stereo not given) + COc1cc2nc(C)nc(NC(C)c3cc(N)cc(C(F)(F)F)c3)c2cc1OC1CCOC1
5. COc1cc2nccc(Oc3ccc(NC(=O)C4(C(=O)Nc5ccc(F)cc5)CC4)cc3)c2cc1OC + CC1OCC2(CCN(c3cnc(Sc4ccnc(N)c4Cl)c(N)n3)CC2)C1N
6. O=C(c1cc(Cc2n[nH]c(=O)c3ccccc23)ccc1F)N1CCN(C(=O)C2CC2)CC1 + COc1cc2nc(C)nc(NC(C)c3cc(N)cc(C(F)(F)F)c3)c2cc1OC1CCOC1
7. CC(=O)OC12COC1CC(O)C1(C)C(=O)C(O)C3=C(C)C(OC(=O)C(O)C(NC(=O)OC(C)(C)C)c4ccccc4)CC(O)(C(OC(=O)c4ccccc4)C21)C3(C)C (stereo not given) + CC1OCC2(CCN(c3cnc(Sc4ccnc(N)c4Cl)c(N)n3)CC2)C1N
8. CC1(C)CCC(CN2CCN(c3ccc(C(=O)NS(=O)(=O)c4ccc(NCC5CCOCC5)c([N+](=O)[O-])c4)c(Oc4cnc5[nH]ccc5c4)c3)CC2)=C(c2ccc(Cl)cc2)C1 + C=CC(=O)N1CCN(c2nc(OCC3CCCN3C)nc3c2CCN(c2cccc4cccc(C)c24)C3)CC1CC#N

Result:
1. 67.2
2. 72.7
3. 67
4. 45.7
5. 81.9
6. 87.3
7. 65.4
8. 82.1

Record summary for CC1(C)CCC(CN2CCN(c3ccc(C(=O)NS(=O)(=O)c4ccc(NCC5CCOCC5)c([N+](=O)[O-])c4)c(Oc4cnc5[nH]ccc5c4)c3)CC2)=C(c2ccc(Cl)cc2)C1 + CC1OCC2(CCN(c3cnc(Sc4ccnc(N)c4Cl)c(N)n3)CC2)C1N : reported viability, T/C = 63.7
